The origin of these recorded values is patent US20220119477A1.

# Experimental Target: T1, WT1 peptide on HLA-A*02:01 (human)
# T1 peptide: VLDFAPPGA
# Test Description: multimer staining

{"Binder": "TCR of Patient 2, alpha 2 and beta 1 (TCR, V domains shown) Valpha: GENVEQHPSTLSVQEGDSAVIKCTYSDSASNYFPWYKQELGKRPQLIIDIRSNVGEKKDQRIAVTLNKTAKHFSLHITETQPEDSAVYFCAATSRDDMRFGAGTRLTVKP Vbeta: DTGVSQNPRHKITKRGQNVTFRCDPISEHNRLYWYRQTLGQGPEFLTYFQNEAQLEKSRLLSDRFSAERPKGSFSTLEIQRTEQGDSAMYLCASSLEGRAMPRDSHQETQYFGPGTRLLVL", "binding result": "recognises"}
{"Binder": "TCR of Patient 2, alpha 2 and beta 2 (TCR, V domains shown) Valpha: GENVEQHPSTLSVQEGDSAVIKCTYSDSASNYFPWYKQELGKRPQLIIDIRSNVGEKKDQRIAVTLNKTAKHFSLHITETQPEDSAVYFCAATSRDDMRFGAGTRLTVKP Vbeta: DAMVIQNPRYQVTQFGKPVTLSCSQTLNHNVMYWYQQKSSQAPKLLFHYYDKDFNNEADTPDNFQSRRPNTSFCFLDIRSPGLGDAAMYLCATSWGLNEQYFGPGTRLTVT", "binding result": "recognises"}
{"Binder": "TCR of Patient 3, alpha 1 and beta (TCR, V domains shown) Valpha: AQKVTQAQTEISVVEKEDVTLDCVYETRDTTYYLFWYKQPPSGELVFLIRRNSFDEQNEISGRYSWNFQKSTSSFNFTITASQVVDSAVYFCALPDKVIFGPGTSLSVIP Vbeta: DSGVTQTPKHLITATGQRVTLRCSPRSGDLSVYWYQQSLDQGLQFLIQYYNGEERAKGNILERFSAQQFPDLHSELNLSSLELGDSALYFCASSVSAGSTGELFFGEGSRLTVL", "binding result": "recognises"}
